System: S. aureus DSM 20231;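 also: first quartile when negative (synergy) and third quartile when positive (antagonism)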
Test: Bliss interaction score (quartile over a dose matrix) (fitness difference); higher = more antagonism (negative = synergy)
reported_metric: Bliss interaction score
Hey, just send me the number, nothing else.

These recorded examples may help you get a feel for the data.
molecule	experimental_target	Bliss interaction score
Cc1ncc([N+](=O)[O-])n1CCO [Metronidazole] + CO[C@@]12[C@H](COC(N)=O)C3=C(C(=O)C(C)=C(N)C3=O)N1C[C@@H]1N[C@@H]12 [MitomycinC]	S. aureus DSM 20231	0.0443
CO/N=C(\C(=O)N[C@@H]1C(=O)N2C(C(=O)O)=C(COC(N)=O)CS[C@H]12)c1ccco1 [Cefuroxime] + CN[C@@H]1[C@H](O)[C@H](NC)[C@H]2O[C@@]3(O)C(=O)C[C@@H](C)O[C@H]3O[C@@H]2[C@H]1O [Spectinomycin]	S. aureus DSM 20231	0.116
N#CC(C#N)=NNc1cccc(Cl)c1 [CCCP] + O=C(O[C@@H]1Cc2c(O)cc(O)cc2O[C@@H]1c1cc(O)c(O)c(O)c1)c1cc(O)c(O)c(O)c1 [EGCG]	S. aureus DSM 20231	-0.0526
C[C@H]1c2cccc(O)c2C(=O)C2=C(O)[C@]3(O)C(=O)C(C(N)=O)=C(O)[C@@H](N(C)C)[C@@H]3[C@@H](O)[C@@H]21 [Doxycycline] + COc1cc(Cc2cnc(N)nc2N)cc(OC)c1OC [Trimethoprim]	S. aureus DSM 20231	0.108
O=C(O)c1cn(C2CC2)c2cc(N3CCNCC3)c(F)cc2c1=O [Ciprofloxacin] + Cc1onc(-c2ccccc2)c1C(=O)N[C@@H]1C(=O)N2[C@@H]1SC(C)(C)[C@@H]2C(=O)O [Oxacillin]	S. aureus DSM 20231	0.0341
CC(=O)Oc1ccccc1C(=O)O [Acetylsalicylicacid] + C/C(=C\C(=O)OCCCCCCCCC(=O)O)C[C@@H]1OC[C@H](C[C@@H]2O[C@H]2[C@@H](C)[C@H](C)O)[C@@H](O)[C@H]1O [Pseudomonic acid]	S. aureus DSM 20231	-0.0241
CO/N=C(\C(=O)N[C@@H]1C(=O)N2C(C(=O)O)=C(COC(C)=O)CS[C@H]12)c1csc(N)n1 [Cefotaxime] + O=c1[nH]cc(F)c(=O)[nH]1 [Fluorouracil]	S. aureus DSM 20231	-0.114
N#CC(C#N)=NNc1cccc(Cl)c1 [CCCP] + CCC[C@@H]1C[C@@H](C(=O)N[C@@H]([C@H]2O[C@H](SC)[C@H](O)[C@@H](O)[C@H]2O)[C@@H](C)O)N(C)C1 [Lincomycin]	S. aureus DSM 20231	-0.0627
O=C(O)c1cn(C2CC2)c2cc(N3CCNCC3)c(F)cc2c1=O [Ciprofloxacin] + CN[C@H](CC(C)C)C(=O)N[C@H]1C(=O)N[C@@H](CC(N)=O)C(=O)N[C@H]2C(=O)N[C@H]3C(=O)N[C@H](C(=O)N[C@H](C(=O)O)c4cc(O)cc(O)c4-c4cc3ccc4O)[C@H](O[C@H]3C[C@](C)(N)[C@@H](O)[C@H](C)O3)c3ccc(c(Cl)c3)Oc3cc2cc(c3O[C@@H]2O[C@H](CO)[C@@H](O)[C@H](O)[C@H]2O[C@H]2C[C@](C)(NCc3ccc(-c4ccc(Cl)cc4)cc3)[C@@H](O)[C@H](C)O2)Oc2ccc(cc2Cl)[C@H]1O [Oritavancin]	S. aureus DSM 20231	-0.0468
C[C@@H]1O[C@@H]1P(=O)(O)O [Fosfomycin] + CCN(CC)CCOC(=O)c1ccc(N)cc1 [Procaine]	S. aureus DSM 20231	-0.0626

// assay S. aureus DSM 20231, entry CC(=O)Oc1ccccc1C(=O)O [Acetylsalicylicacid] + CC(C)Cc1ccc(C(C)C(=O)O)cc1 [Ibuprofen] , Bliss interaction score value = -0.275
